system: Staphylococcus sp.; assay: In vitro antibacterial evaluation: minimum inhibitory concentration (MIC), broth dilution method; format: cell-based; settings: broth dilution, 5×10^5 CFU/mL, 18 hours at 35° C.
PROPERTY_NAME: MIC Coagulase Negative Staphylococcus (GC 4551)

Solved entries (count: 5):
Notebook entry, Staphylococcus sp. assay: MIC Coagulase Negative Staphylococcus (GC 4551) of Cc1cccc(C2OCC3OC(OC4C(CO)OC(Oc5ccc(CC6NC(=O)C(C(C)c7ccccc7)NC(=O)CNC(=O)C(CO)NC(=O)C(C(O)C7CNC(=N)N7C7OC(CO)C(O)C(O)C7O)NC(=O)C(C(O)C7CNC(=N)N7)NC6=O)cc5)C(O)C4O)C(O)C(O)C3O2)c1 (centres unmarked) = ?
1 µg/mL

Notebook: pull reported MIC Coagulase Negative Staphylococcus (GC 4551) for Staphylococcus sp., entry CC(c1ccccc1)C1NC(=O)CNC(=O)C(CO)NC(=O)C(C(O)C2CNC(=N)N2C2OC(CO)C(O)C(O)C2O)NC(=O)C(C(O)C2CNC(=N)N2)NC(=O)C(Cc2ccc(OC3OC(CO)C(OC4OC5COC(c6ccc(-c7ccc(Cl)cc7)cc6)OC5C(O)C4O)C(O)C3O)cc2)NC1=O (centres unmarked)
4 µg/mL

Query for Staphylococcus sp.: what MIC Coagulase Negative Staphylococcus (GC 4551) does the record show for CCOc1cc(C2OCC3OC(OC4C(CO)OC(Oc5ccc(CC6NC(=O)C(C(C)c7ccccc7)NC(=O)CNC(=O)C(CO)NC(=O)C(C(O)C7CNC(=N)N7C7OC(CO)C(O)C(O)C7O)NC(=O)C(C(O)C7CNC(=N)N7)NC6=O)cc5)C(O)C4O)C(O)C(O)C3O2)ccc1OC (centres unmarked) ?
16 µg/mL

Requested read-out MIC Coagulase Negative Staphylococcus (GC 4551), target or system Staphylococcus sp., entry CC(c1ccccc1)C1NC(=O)CNC(=O)C(CO)NC(=O)C(C(O)C2CNC(=N)N2C2OC(CO)C(O)C(O)C2O)NC(=O)C(C(O)C2CNC(=N)N2)NC(=O)C(Cc2ccc(OC3OC(CO)C(OC4OC5COC(c6ccsc6)OC5C(O)C4O)C(O)C3O)cc2)NC1=O (centres unmarked)
1 µg/mL

What MIC Coagulase Negative Staphylococcus (GC 4551) appears in the records for this compound with Staphylococcus sp.? CC(c1ccccc1)C1NC(=O)CNC(=O)C(CO)NC(=O)C(C(O)C2CNC(=N)N2C2OC(CO)C(O)C(O)C2O)NC(=O)C(C(O)C2CNC(=N)N2)NC(=O)C(Cc2ccc(OC3OC(CO)C(OC4OC5COC(c6ccc(-c7ccsc7)cc6)OC5C(O)C4O)C(O)C3O)cc2)NC1=O (centres unmarked)
4 µg/mL

Continuing:
Please state recorded MIC Coagulase Negative Staphylococcus (GC 4551) (tested on Staphylococcus sp.) of CC(c1ccccc1)C1NC(=O)CNC(=O)C(CO)NC(=O)C(C(O)C2CNC(=N)N2C2OC(CO)C(O)C(O)C2O)NC(=O)C(C(O)C2CNC(=N)N2)NC(=O)C(Cc2ccc(OC3OC(CO)C(OC4OC5COC(c6cccc(O)c6)OC5C(O)C4O)C(O)C3O)cc2)NC1=O (centres unmarked)
32 µg/mL

// fetch Staphylococcus sp. MIC Coagulase Negative Staphylococcus (GC 4551) for CC(c1ccccc1)C1NC(=O)CNC(=O)C(CO)NC(=O)C(C(O)C2CNC(=N)N2C2OC(CO)C(O)C(O)C2O)NC(=O)C(C(O)C2CNC(=N)N2)NC(=O)C(Cc2ccc(OC3OC(CO)C(OC4OC5COC(c6ccc(S(C)(=O)=O)cc6)OC5C(O)C4O)C(O)C3O)cc2)NC1=O (centres unmarked)
32 µg/mL

Give MIC Coagulase Negative Staphylococcus (GC 4551) (Staphylococcus sp.) of the following compound: COc1cc(OC)cc(C2OC3C(OC4C(CO)OC(Oc5ccc(CC6NC(=O)C(C(C)c7ccccc7)NC(=O)CNC(=O)C(CO)NC(=O)C(C(O)C7CNC(=N)N7C7OC(CO)C(O)C(O)C7O)NC(=O)C(C(O)C7CNC(=N)N7)NC6=O)cc5)C(O)C4O)OC(CO)C(O)C3O2)c1 (centres unmarked) [Example 150a]
32 µg/mL

Observed MIC Coagulase Negative Staphylococcus (GC 4551) on Staphylococcus sp. for CC(c1ccccc1)C1NC(=O)CNC(=O)C(CO)NC(=O)C(C(O)C2CNC(=N)N2C2OC(CO)C(O)C(O)C2O)NC(=O)C(C(O)C2CNC(=N)N2)NC(=O)C(Cc2ccc(OC3OC(CO)C(OC4OC5COC(c6cc7c(cc6Cl)OCO7)OC5C(O)C4O)C(O)C3O)cc2)NC1=O (centres unmarked) , please.
2 µg/mL

What value of MIC Coagulase Negative Staphylococcus (GC 4551) on Staphylococcus sp. does CC(c1ccccc1)C1NC(=O)CNC(=O)C(CO)NC(=O)C(C(O)C2CNC(=N)N2C2OC(CO)C(O)C(O)C2O)NC(=O)C(C(O)C2CNC(=N)N2)NC(=O)C(Cc2ccc(OC3OC(CO)C(OC4OC(CO)C(O)C5OC(c6ccc(-c7ccsc7)cc6)OC45)C(O)C3O)cc2)NC1=O (centres unmarked) [Example 164a] have?
8 µg/mL

Reported MIC Coagulase Negative Staphylococcus (GC 4551) for Staphylococcus sp., given COc1cccc(C2OC3C(OC4C(CO)OC(Oc5ccc(CC6NC(=O)C(C(C)c7ccccc7)NC(=O)CNC(=O)C(CO)NC(=O)C(C(O)C7CNC(=N)N7C7OC(CO)C(O)C(O)C7O)NC(=O)C(C(O)C7CNC(=N)N7)NC6=O)cc5)C(O)C4O)OC(CO)C(O)C3O2)c1 (single isomer, unassigned) [Example 137a] ?
16 µg/mL
